Source: the Human Domainome abundance scans (Beltran et al. 2025)

B1: SH3 and PX domain-containing protein 2B, residues 155 to 209; numbered along this chain, A1X283 (parent)
chain: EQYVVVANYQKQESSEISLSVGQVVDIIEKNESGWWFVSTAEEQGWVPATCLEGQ

- Variants of: B1
- procedure-summary: abundance fitness (aPCA) (normalised: wild type 0, dead -1); higher = more abundant; growth selection in yeast, the domain comes from the species named
- condition: Homo sapiens
measured-quantity: abundance fitness
// print number alone

sequence-input | abundance fitness
EQYVVVANYQKQESSEISLSVGQVVDIIHKNESGWWFVSTAEEQGWVPATCLEGQ [E29H] | 0.056
EQYVVVANYQKQESSEISLSVGQVVDIIEKNESGWWFVSTAEEQKWVPATCLEGQ [G45K] | -0.547
EQYVVVANYQKQESSEISLSVGQVVDIIEKNESGWWFVSTAQEQGWVPATCLEGQ [E42Q] | 0.019
EQYVVVANYQKQESSEISLSVGQVVDIIEKNESGWWFVSTAEEQGWVPATKLEGQ [C51K] | -0.245
EQYVVVANYQKQESSEISLSVGQVVDVIEKNESGWWFVSTAEEQGWVPATCLEGQ [I27V] | 0.055
EQYVDVANYQKQESSEISLSVGQVVDIIEKNESGWWFVSTAEEQGWVPATCLEGQ [V5D] | -0.999

Alright, here's another variant for you.
Prompt: I would be grateful if you could share the reported abundance fitness for EQYVVVANYQKQESSEISLSVGQVVDIIEKNESGWTFVSTAEEQGWVPATCLEGQ [W36T] .
Response: -0.234
